All values here come from ChEMBL document CHEMBL4229332.

For each entry below, report its pKi value.
# Target Or System: 5-hydroxytryptamine receptor 1A (Homo sapiens, UniProt P08908)
# Experiment Notes: biochemical
# Description: Displacement of [3H]-8-OH-DPAT from human 5-HT1AR expressed in HEK293 cell membranes after 1 hr by microbeta counting method
Numbers only, as −log10 of the molar value.

Please review the following examples before continuing.
1. O=S(=O)(c1cccc2ncccc12)N1CCC[C@H]1CCN1CC=C(c2c[nH]c3ccc(Cl)cc23)CC1	6.84
2. O=S(=O)(c1cccc2ncccc12)N1CCC[C@@H]1CCN1CCN(c2cccc3[nH]ccc23)CC1	8.30
3. O=S(=O)(c1cccc2ncccc12)N1CCC[C@@H]1CCN1CC=C(c2c[nH]c3ccc(Cl)cc23)CC1	7.04

System 5-hydroxytryptamine receptor 1A (Homo sapiens, UniProt P08908). Read-out pKi. Item O=S(=O)(c1cncc2ccccc12)N1CCCC[C@@H]1CCN1CCN(c2cccc3sccc23)CC1 . Report value.
7.92

----------
# Target Or System: UniProt P50406
# Sequence (P50406 whole entry): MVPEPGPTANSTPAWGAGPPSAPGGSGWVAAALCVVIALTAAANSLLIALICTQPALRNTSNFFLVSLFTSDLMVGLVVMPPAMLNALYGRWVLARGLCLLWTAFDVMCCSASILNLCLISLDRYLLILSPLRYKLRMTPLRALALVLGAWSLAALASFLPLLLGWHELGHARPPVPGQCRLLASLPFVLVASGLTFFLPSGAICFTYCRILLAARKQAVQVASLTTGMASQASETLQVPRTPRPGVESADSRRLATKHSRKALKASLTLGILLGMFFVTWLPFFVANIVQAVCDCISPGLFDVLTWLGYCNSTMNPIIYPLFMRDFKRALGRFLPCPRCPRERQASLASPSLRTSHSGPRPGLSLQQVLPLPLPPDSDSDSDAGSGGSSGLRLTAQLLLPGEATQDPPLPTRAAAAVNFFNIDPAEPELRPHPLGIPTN
Assign a class from recorded Ki; defined classes: lowest: < 0.08 µM; middle: ≥ 0.08 µM and < 0.3 µM; highest: ≥ 0.3 µM

Which bin should I file O=S(=O)(c1cncc2ccccc12)N1CCC[C@@H]1CCN1CC=C(c2c[nH]c3ccc(Cl)cc23)CC1 under?
lowest

Which bin should I file O=S(=O)(c1cccc2ncccc12)N1CCCC[C@@H]1CCN1CCN(c2nsc3ccccc23)CC1 under?
highest

Which bin should I file O=S(=O)(c1cncc2ccccc12)N1CCCC[C@@H]1CCN1CCN(c2cccc3sccc23)CC1 under?
middle

Which bin should I file O=S(=O)(c1cccc2cnccc12)N1CCC[C@H]1CCN1CCN(c2cccc3sccc23)CC1 under?
lowest

Which bin should I file O=S(=O)(c1cncc2ccccc12)N1CCC[C@@H]1CCN1CCN(c2cccc3c2OCCO3)CC1 under?
highest

Which bin should I file O=S(=O)(c1cccc2ncccc12)N1CCC[C@H]1CCN1CC=C(c2c[nH]c3ccc(Cl)cc23)CC1 under?
lowest

Which bin should I file O=S(=O)(c1cccc2ncccc12)N1CCC[C@H]1CCN1CCN(c2noc3ccccc23)CC1 under?
middle

Which bin should I file O=S(=O)(c1cccc2ncccc12)N1CCCC[C@@H]1CCN1CCN(c2cccc3sccc23)CC1 under?
highest

----------
# Experiment Notes: Effect on failure incidence during conditioned avoidance response test in ip dosed Sprague-Dawley rat administered 60 mins prior to testing
# Format: ADME, organism-based
# Measurement Setup: in vivo
Reported Endpoint: MTD at 1 h
In your response, put the unit directly after the numeric value.

1. O=C1Cc2cc(CCN3CCN(c4nsc5ccccc45)CC3)c(Cl)cc2N1	2 mg/kg

For the compound O=C(CCCN1CCC(O)(c2ccc(Cl)cc2)CC1)c1ccc(F)cc1 , give its measured MTD at 1 h value.
0.2 mg/kg

----------
# Target Or System: 5-hydroxytryptamine receptor 1A (Homo sapiens, UniProt P08908)
# Sequence (P08908 whole entry): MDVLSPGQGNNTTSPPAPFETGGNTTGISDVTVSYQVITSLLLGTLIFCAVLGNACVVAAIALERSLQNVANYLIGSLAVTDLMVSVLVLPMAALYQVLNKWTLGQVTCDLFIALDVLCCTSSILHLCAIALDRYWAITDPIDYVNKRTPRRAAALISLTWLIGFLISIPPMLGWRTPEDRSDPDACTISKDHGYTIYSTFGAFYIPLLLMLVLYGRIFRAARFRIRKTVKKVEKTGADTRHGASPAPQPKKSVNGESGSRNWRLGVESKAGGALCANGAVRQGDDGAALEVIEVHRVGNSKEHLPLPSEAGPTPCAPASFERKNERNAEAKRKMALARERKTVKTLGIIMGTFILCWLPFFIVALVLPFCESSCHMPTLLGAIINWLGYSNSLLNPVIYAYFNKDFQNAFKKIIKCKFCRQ
# Experiment Notes: biochemical
Reported Endpoint: pKi
Answers are plain numbers, as −log10 of the molar value.

Please review the following examples before continuing.
1. O=S(=O)(c1cncc2ccccc12)N1CCC[C@@H]1CCN1CCN(c2cccc3c2OCCO3)CC1	8.15
2. O=S(=O)(c1cncc2ccccc12)N1CC[C@@H]1CCN1CCN(c2nsc3ccccc23)CC1	7.25
3. O=c1[nH]c2c(N3CCN(CC[C@@H]4CCCN4S(=O)(=O)c4cccc5ncccc45)CC3)cccc2o1	7.64
4. O=S(=O)(c1cncc2ccccc12)N1CCC[C@H]1CCN1CCN(c2cccc3c2OCCO3)CC1	8.22

Read the next record carefully.
For the compound O=S(=O)(c1cccc2ncccc12)N1CCC[C@@H]1CCN1CCN(c2cccc3c2OCCO3)CC1 , give its measured pKi value.
8.30
